This collection of values is drawn from patent US9284348B2.

- TEST: Evaluation of solubility in organic solvents at 25° C.
- Format: physicochemical
- COND: tetrahydrofuran, organic solvent or mixture
PROPERTY NAME: solubility (mg/mL)
Number only, in mg/mL; omit the unit.

Noted for CCCCCCCCCCCCCCCCCCCCCCOc1ccc(CO)c(OCCCCCCCCCCCCCCCCCCCCCC)c1 [2,4-bis-docosanoxyphenyl methanol] : its solubility reads 236
